Data provenance is paper doi:10.1101/2023.07.01.547314v1.

Target: A2AR (Homo sapiens, UniProt P29274, Y9F)
Sequence (P29274 whole entry Y9F): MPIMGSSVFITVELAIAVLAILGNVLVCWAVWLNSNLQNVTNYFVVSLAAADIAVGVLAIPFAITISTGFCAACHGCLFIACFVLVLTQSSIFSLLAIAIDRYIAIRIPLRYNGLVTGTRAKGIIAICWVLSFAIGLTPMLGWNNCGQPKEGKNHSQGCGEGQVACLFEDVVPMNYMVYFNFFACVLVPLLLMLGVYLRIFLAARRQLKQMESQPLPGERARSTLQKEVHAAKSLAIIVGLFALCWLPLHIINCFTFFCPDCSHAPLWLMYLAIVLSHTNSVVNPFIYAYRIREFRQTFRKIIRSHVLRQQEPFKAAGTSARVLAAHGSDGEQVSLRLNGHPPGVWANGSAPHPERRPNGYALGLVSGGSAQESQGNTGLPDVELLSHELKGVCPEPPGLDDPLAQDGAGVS
Assay: cell-based
endpoint: IC50 (nM)
Write the value in nM as a bare number.

Prompt line: Value lookup for IC50; key = `Cc1c(C#N)cccc1-c1cc(-c2cn(Cc3cccc(C(C)(C)O)n3)nn2)nc(N)n1`
Response line: 1.78

----------
Molecular target: UniProt P29274
endpoint: IC50
Report field: quantity (unit follows the number).

Prompt line: Hello, I am looking for reported IC50 with UniProt P29274 for `Cc1c(C#N)cccc1-c1cc(-c2cn(Cc3cccc(C(C)(C)O)n3)nn2)nc(N)n1` . Could you help?
Response line: 3.21 nM
